All values here come from patent US9765074B2.

- TARGET DESC: hROMK (hKir1.1) (Homo sapiens, UniProt P48048)
- Construct: expressed in transfected cells
- Sequence (P48048 1-391): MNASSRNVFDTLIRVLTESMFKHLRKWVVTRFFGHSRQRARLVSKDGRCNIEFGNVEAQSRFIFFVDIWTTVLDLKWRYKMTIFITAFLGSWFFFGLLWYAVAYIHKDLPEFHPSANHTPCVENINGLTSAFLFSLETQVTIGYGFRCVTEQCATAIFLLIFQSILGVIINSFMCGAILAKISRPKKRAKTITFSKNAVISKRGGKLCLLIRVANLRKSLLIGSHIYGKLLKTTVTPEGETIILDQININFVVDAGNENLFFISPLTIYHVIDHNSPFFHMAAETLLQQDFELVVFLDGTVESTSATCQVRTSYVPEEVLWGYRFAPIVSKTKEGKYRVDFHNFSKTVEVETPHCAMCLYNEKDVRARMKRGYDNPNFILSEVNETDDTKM
- EXPERIMENTAL DETAILS: Thallium Flux Assay (ROMK channel functional thallium flux, FLIPR-Tetra)
- Assay type: cell-based
- RUN CONDITIONS: HEK293 cells stably expressing hROMK (hKir1.1); 30 min compound incubation
Provide the reported pIC50 of each item.
Schema: pIC50 number; meaning minus log10 of the concentration expressed in molar units.

Record summary for Cc1cc(-n2cnnn2)ccc1[C@H](O)CN1CCC2(CC1)CCN(C1=CC(=O)OC1)C2=O : reported pIC50 = 8.00

Record summary for COC1CN(C2=CC(=O)OC2)C(=O)C12CCN(C[C@H](O)c1ccc(-n3cnnn3)nc1)CC2 (mixture of isomers) [Example 207] : reported pIC50 = 7.40

Record summary for CC1=CC2(CCN(C[C@H](O)c3cnc(-n4cnnn4)cn3)CC2)C(=O)N1C1=CC(=O)OC1 : reported pIC50 = 7.00

Record summary for O=C1C=C(N2CCC3(CCN(C[C@@H](O)c4ccc(-n5cnnn5)nc4)CC3)C2=O)CO1 (single isomer, unassigned) : reported pIC50 = 7.30

Record summary for COC1CN(C[C@@H](O)c2cnc(-n3cnnn3)cn2)CCC12CCN(C1=C(C)C(=O)OC1)C2=O (single isomer, unassigned) [Example 179] : reported pIC50 = 6.48

Record summary for CC1=C(N2CCC3(CCN(C[C@@H](O)c4ccc(-n5cnnn5)c(C#N)c4)CC3)C2=O)COC1=O : reported pIC50 = 7.15

Record summary for CC1=C(N2CCC3(CCN(C[C@@H](O)c4nnc(-n5cnnn5)c(C)c4C)CC3)C2=O)COC1=O : reported pIC50 = 7.52

Record summary for O=C1C=C(N2C=CC3(CCN(CCc4ccc(-n5cnnn5)nn4)CC3)C2=O)CO1 : reported pIC50 = 7.40

Record summary for CC1(C)CC2(CCN(C[C@H](O)c3ccc(-n4cnnn4)nn3)CC2)C(=O)N1C1=CC(=O)OC1 : reported pIC50 = 7.30

Record summary for Cc1nc([C@H](O)CN2CCC3(CC2)CCN(C2=CC(=O)OC2)C3=O)ccc1-n1cnnn1 : reported pIC50 = 7.22

Record summary for COC1CN(C[C@H](O)c2cnc(-n3cnnn3)cn2)CCC12CCN(C1=C(C)C(=O)OC1)C2=O (single isomer, unassigned) [Example 172] : reported pIC50 = 6.74

Record summary for COc1nc(-n2cnnn2)ccc1[C@@H](O)CN1CCC2(CC1)CCN(C1=C(C)C(=O)OC1)C2=O : reported pIC50 = 7.70

Record summary for CC1=C(N2CCC3(CCN(C[C@H](O)c4nnc(-n5cnnn5)cc4C)CC3)C2=O)COC1=O : reported pIC50 = 7.70

Record summary for CC1=C(N2CC(O)C3(CC4CCC(C3)N4C[C@@H](O)c3ccc(-n4cnnn4)nc3)C2=O)COC1=O (single isomer, unassigned) [Example 107] : reported pIC50 = 6.96

Record summary for CC1=C(N2C(=O)C3(CCN(C[C@@H](O)c4ncc(-n5cnnn5)cc4C)CC3)CC2C)COC1=O (single isomer, unassigned) : reported pIC50 = 7.10

Record summary for CC1=C(N2CCC3(CCN(C[C@H](O)c4ccc(-n5cnnn5)nc4)CC3F)C2=O)COC1=O (single isomer, unassigned) [Example 194] : reported pIC50 = 8.00

Record summary for CC1=C(N2CCC3(CCN(C[C@H](O)c4ncc(-n5cnnn5)cc4C)CC3)C2=O)COC1=O : reported pIC50 = 7.52

Record summary for COc1cc(-n2cnnn2)ncc1[C@@H](O)CN1CCC2(CC1)CCN(C1=C(C)C(=O)OC1)C2=O : reported pIC50 = 7.52

Record summary for CC1=C(N2CCC3(CCN(C[C@H](O)c4cnc(-n5cnnn5)c(C)n4)CC3)C2=O)COC1=O : reported pIC50 = 7.30

Record summary for Cc1cc(-n2cnnn2)nnc1CCN1CCC2(CC1)C[C@H](C)N(C1=CC(=O)OC1)C2=O : reported pIC50 = 8.40

Record summary for CC1=C(N2CCC3(CC4COCC(C3)N4C[C@H](O)c3ccc(-n4cnnn4)nc3)C2=O)COC1=O (stereo partly shown) : reported pIC50 = 7.40

Record summary for C[C@H]1CC2(CCN(C[C@H](O)c3cnc(-n4cnnn4)cn3)CC2)C(=O)N1C1=CC(=O)OC1 : reported pIC50 = 8.00

Record summary for CC1=C(N2CCC3(CCN(C[C@H](O)c4ccc(-n5cnnn5)cc4C)CC3)C2=O)COC1=O : reported pIC50 = 8.00

Record summary for C[C@H]1CC2(CCN(CCc3ccc(-n4cnnn4)nn3)CC2)C(=O)N1C1=CC(=O)OC1 : reported pIC50 = 8.52

Record summary for CC1=C(N2CCC3(CCN(C[C@@H](O)c4ccc(-n5cnnn5)nc4)CC3)C2=O)COC1=O : reported pIC50 = 7.52

Record summary for CC1=C(N2CCC3(CCN(C[C@H](O)c4cncc(-n5cnnn5)n4)CC3)C2=O)COC1=O : reported pIC50 = 6.36

Record summary for CC1=C(N2CCC3(CCN(C[C@@H](F)c4cnc(-n5cnnn5)cn4)CC3)C2=O)COC1=O : reported pIC50 = 7.10

Record summary for CC1=C(N2C(=O)C3(CC2C)CC2CCC(C3)N2C[C@H](O)c2ccc(-n3cnnn3)nc2)COC1=O (single isomer, unassigned) [Example 133] : reported pIC50 = 8.00
